target: T1, HIDE1_HH-1 (Human ECD + human IgG1 Fc mutated C220S at hinge), without SP (human); test: SPR (ProteOn), Fab PPE over captured HIDE1-HH-1, 1:1 fit
T1 construct: Batch #280 in the Serotec and phage display work; also called HIDE1 hECD-hIg; HIDE1 (H:H) recombinant Fc fusion protein
T1 sequence (chain, as listed by the source C220S C220S limits assumed): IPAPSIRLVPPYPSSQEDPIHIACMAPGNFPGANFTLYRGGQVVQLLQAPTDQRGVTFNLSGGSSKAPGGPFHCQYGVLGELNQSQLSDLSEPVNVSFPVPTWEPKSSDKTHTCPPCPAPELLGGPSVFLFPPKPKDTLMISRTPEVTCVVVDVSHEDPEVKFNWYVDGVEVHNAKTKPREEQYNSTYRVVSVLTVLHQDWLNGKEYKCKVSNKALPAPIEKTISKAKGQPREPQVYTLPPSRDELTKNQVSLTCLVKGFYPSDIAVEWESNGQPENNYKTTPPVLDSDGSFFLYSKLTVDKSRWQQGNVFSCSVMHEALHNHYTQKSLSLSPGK
kon values by entry
Answer in M⁻¹ s⁻¹, number only, no unit symbol.

CPA.12.007 Fab (A08 S398-01.E08) (Fab, V domains shown, XOMA031 library Fab in periplasmic extract) VH: EVQLVESGGGVVQPGESLRLSCAASGFTFSSYGFHWVRQSPGEGLEWLAVISYDGTSKSYADSVKGRFTVSRDNSKETLYLQLSSLRREDTALYYCARDTWGYYYGMDVWGQGTTVTVSS VL: DIQMTQSPSFLSGSVGDRVSISCRASQDIRSHLAWYQRKPGEAPKLLIYTASSLQGGVPLRFSGSGSGTEFTLTISSLQPEDSATYYCQHLHLYPLTFGGGTKLEIKR ... 210000
CPA.12.003 Fab (A03 S397-01.A12) (Fab, V domains shown, XOMA031 library Fab in periplasmic extract) VH: QVQLQESGPGLVTPSETLSLTCTVSGGSISSVSYYWGWVRQPPGKGLEWIGSIYYSGTTAHNPSLKSRVTMAVDTSKNQFSLSLSSVTAADTAVYFCARGWRYYEDYYFDHWGQGTLVTVSS VL: DIQMTQSPSTLSASVGDRVTITCRASQSINRWLAWYQQKPGKAPKILIYTASSLESGVPSRFSGSGSGTEFTLTISSLQPDDFATYYCQQYNSYPITFGQGTRLEIKR ... 250000
CPA.12.002 Fab (A02 S397-01.A08) (Fab, V domains shown, XOMA031 library Fab in periplasmic extract) VH: EVQLVESGGGLVQPGRSLRLSCAASGFTFSSYAMHWVRQVPGKGLEWVAVISYDGSNKYYADSVKGRFTISRDNSKNTLYLQMNSLRAEDTAVYYCAKPMYSSGWYPLGYWGQGTLVTVSS VL: DIVMTQTPLSLPVTPGQPASISCRSSQSPLDTDGNTYLDWYLQRPGQSPQLLIYTLSNRASGVPDRFSGSGSGTDFTLKISRVEAEDVGIYYCMQRIQYPLTFGPGTRLEIKR ... 100000
CPA.12.001 Fab (A01 S397-01.A04) (Fab, V domains shown, XOMA031 library Fab in periplasmic extract) VH: QVQLVESGGGLVQPGRSLRLSCAASGFTFSSYGMHWVRQAPGKGLEWVAVISYDGSNKYYADSVKGRFTISRDNSKNTLYLQMNSLRAEDTAVYYCASEGVDFWSGLDYWGQGTLVTVSS VL: QSALTQPRSASGSAGQSVTISCTGTSSDVGGHNYVSWYQQFPGKAPKLLIYEVSHRPSGVPDRFSGSKSGNTASLTVSGLQAEDEADYYCSSYADLNNLMFGGGTKLTVLG ... 670000

Prompt line: Return value of kon for input CPA.12.004 Fab (A04 S397-01.D06) (Fab, V domains shown, XOMA031 library Fab in periplasmic extract) VH: EVQLVETGGGLIQPGRSLRLSCVASDFRFSNHAMHWVRQAPGKELEWVAVISSDGSNRQYAYSVKGRFTISRDNSKNTLYLEMNILGPEDTAVYFCVRSHLGPEWYYGMDVWGQGTTVTVSS VL: DIQMTQSPSSLSTSVGDSVTITCRSSQSISTFLSWFQHKPGKAPNLLIYDASSLQSGVPSRFSGSGSGTDFTLTISSLQPEDFATYYCQQSDYLPFTFGPGTKVEIKR , no commentary.
Response line: 1.6e+06

The origin of these recorded values is patent US20180305451A1.
